self-cleavage values by entry
B1: HDV Ribozyme (parent)
chain: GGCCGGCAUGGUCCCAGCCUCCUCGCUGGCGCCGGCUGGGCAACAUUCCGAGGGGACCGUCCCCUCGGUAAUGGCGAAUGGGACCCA

# Variants of: B1
# Experiment description: self-cleavage, relative activity (ratio to wild type); higher = more cleavage; co-transcriptional
Output: the number by itself.

Some solved cases for reference:
Sequence text	self-cleavage
GGCCGGCAUGGCCCCAGCCUCCUCGCUGGCGCCGGCUGGGCAACAUUCCGAGGGGAUCGUCCCCUCGGUAAUGGCGAAUGGGACCCA	0.293
GGCCGGCAUGGUCCCAGCCUCCUCGCUGGCGCCGGCUGGGCAACAUUCCGACGGGACCGUCCCCUCGGUAAUGGCGAAUGUGACCCA	0.579
GGCCGGCAUGGUCCCAGCCUCCUCGCUGGCGCCGGCAGGGCAACAUUCCGAGUGGACCGUCCCCUCGGUAAUGGCGAAUGGGACCCA	0.302
GGCCGGCAUGGUCCCAGCCUCUUCGCUGGCGCCGACUGGGCAACAUUCCGAGGGGACCGUCCCCUCGGUAAUGGCGAAUGGGACCCA	0.109
GGCCGGCAGGGUCCCAGCCUCCUCGCAGGCGCCGGCUGGGCAACAUUCCGAGGGGACCGUCCCCUCGGUAAUGGCGAAUGGGACCCA	0.437

Data request: Requested read-out: self-cleavage. Entry: "GGCCGGGAUGGUCCCAGCCUCCUCGCUGGCGCCGGCUGGGCAACAUUCCGAGGGGACCGUCCCCUCGGUAAGGGCGAAUGGGACCCA"
Data returned: 0

Data request: Requested read-out: self-cleavage. Entry: "GGCCGGCAUGGUCCGAGCCUCCUCGCUGGCGCCGGCUGGGCAACAUUCCGAGGGGACCGUCCCCUCGGUAAUGGCAAAUGGGACCCA"
Data returned: 0.665

Data request: Requested read-out: self-cleavage. Entry: "GGCCGGCAUGGUCCCAGCCUCCUCGCUGGCGCAGGCUGGGCAACAUUCCGAGGGGACCGUCCCCUCGGUAAUGGCUAAUGGGACCCA"
Data returned: 0.326

Data request: Requested read-out: self-cleavage. Entry: "GGCCGGCUUGGUCCCAGCCUCCUCGCUGGCGCCGGCUGGGCUACAUUCCGAGGGGACCGUCCCCUCGGUAAUGGCGAAUGGGACCCA"
Data returned: 0.314

Data request: Requested read-out: self-cleavage. Entry: "GGCCGGCAUGGUCCCAGCCUCCUCGCUGGCGCCGGCUGGGCAAGAUUCCGAGGGGACCGUCCUCUCGGUAAUGGCGAAUGGGACCCA"
Data returned: 0.81

Data request: Requested read-out: self-cleavage. Entry: "GGCCGGCAUGGUCCCAGCCUCAUCGCUGGCGCCGGCUGGGCAACAUUCCGAGGGGACCGUCCCCUCGGUAAUGGCGAAUGGGACCCA"
Data returned: 0.306

Data request: Requested read-out: self-cleavage. Entry: "UGCCGGCAUGGUCCCAGCCUCCUCGCUGGCGCCGGCUGGGCAACAUUCCGAGGGGACCGUCCCCUCGCUAAUGGCGAAUGGGACCCA"
Data returned: 0.431

Data request: Requested read-out: self-cleavage. Entry: "GGCCGGCAUGGUCCCAGCCUCCUCGCUGGCGCCGGCUGGGCUACAUUCCGAUGGGACCGUCCCCUCGGUAAUGGCGAAUGGGACCCA"
Data returned: 0.592
